Values compiled from patent US20190055314A1.

Target: T1, CD137-hisFc fusion protein (Sino Biological Cat 10041-H03H) (human, UniProt Q07011 24-186)
T1 construct: Bought; also called recombinant human CD137 (fused with human Fc and His tag); not shown: His tag and human Fc
Assay: BLI Octet, Fab;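 note: fab fragments expressed in E. coli, binding to human CD137 measured on Octet RED96, kinetics fitted with a 1:1 Langmuir model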
measured.property: log10 of Kd (log10 of the value in nM)
A difference of one corresponds to tenfold Kd; all values are log10 with Kd in nM.

Fab 5353 (Fab, V domains shown, Fab from E. coli; also called VH26/VL26) VH: EVQLVESGGGLVQPGGSLRLSCAASGFTFSSYWIHWVRQAPGKGLEWVSVISGDGDTTYYADSVKGRFTISRDNSKNTLYLQLNSLRAEDTAVYYCARSRGLVLDAFDYWGQGTLVTVSS VL: DIQLTQSPSSLSASVGDRVTITCRASQSVSGRFLAWYQQKPGKAPKLLIYDASSLESGVPSRFSGSGSGTDFTLTISSLQPEDFATYYCQQYDYWPPYTFGQGTKVEIKR    1.20
Fab 5351 (Fab, V domains shown, Fab from E. coli; also called VH25/VL25) VH: EVQLVESGGGLVQPGGSLRLSCAASGYSITSGHYWAWIRQAPGKGLEWVSSISGYGSTTYYADSVKGRFTISRDNSKNTLYLQLNSLRAEDTAVYYCARGGSDAVLGDWFAYWGQGTLVTVSS VL: DIQLTQSPSSLSASVGDRVTITCRASQGIGSFLAWYQQKPGKAPKLLIYDASNLETGVPSRFSGSGSGTDFTLTISSLQPEDFATYYCQQGYYLWTFGQGTKVEIKR    0.86

*Q* Please report the recorded log10 of Kd for Fab 5323 (Fab, V domains shown, Fab from E. coli; also called VH19/VL19) VH: EVQLVESGGGLVQPGGSLRLSCAASGFSLSTSGVGVGWIRQAPGKGLEWIGEIYHSGSTYYSPSLKSRVTISRDNSKNTLYLQLNSLKAEDTAVYYCAREGSDVVTGDWFAYWGQGTLVTVSS VL: DIQLTQSPSSLSASVGDRVTITCRASQGISSVLAWYQQKPGKAPKLLIYDASSLESGVPSRFSGSGSGTDFTLTISSLQPEDFATYYCQQGYSLWTFGQGTKVEIKR .
*A* 1.00

*Q* Please report the recorded log10 of Kd for Fab 5370 (Fab, V domains shown, Fab from E. coli; also called VH32/VL32) VH: EVQLVESGGGLVQPGGSLRLSCAASGFSLSTSGVAVAWIRQAPGKGLEWLALIDWDDDKRYSTSLKSRLTISRDNSKNTLYLQLNSLRAEDTAVYYCAREGSTTVVGDWFDYWGQGTLVTVSS VL: DIQLTQSPSSLSASVGDRVTITCRASQGIGTYLAWYQQKPGKAPKLLIYDASNRATGIPSRFSGSGSGTDFTLTISSLQPEDFATYYCQQGYSLWTFGQGTKVEIKR .
*A* 0.28

*Q* Please report the recorded log10 of Kd for Fab 5367 (Fab, V domains shown, Fab from E. coli; also called VH31/VL31) VH: EVQLVESGGGLVQPGGSLRLSCAASGFSLSTSGVGVGWIRQAPGKGLEWVSGISGAGDSTYYADSVKGRFTISRDNSKNTLYLQLNSLRAEDTAVYYCAREGSDTVLGDWFAYWGQGTLVTVSS VL: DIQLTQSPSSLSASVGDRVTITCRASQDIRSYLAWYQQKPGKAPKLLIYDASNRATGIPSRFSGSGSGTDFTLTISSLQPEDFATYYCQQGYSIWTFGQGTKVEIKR .
*A* 1.18

*Q* Please report the recorded log10 of Kd for Fab 5302 (Fab, V domains shown, Fab from E. coli; also called VH13/VL13) VH: EVQLVESGGGLVQPGGSLRLSCAASGFSLSTGGVGVAWIRQAPGKGLEWVSSISGYGSTTYYADSVKGRFTISRDNSKNTLYLQLNSLRAEDTAVYYCAREGSDAVLGDWFGYWGQGTLVTVSS VL: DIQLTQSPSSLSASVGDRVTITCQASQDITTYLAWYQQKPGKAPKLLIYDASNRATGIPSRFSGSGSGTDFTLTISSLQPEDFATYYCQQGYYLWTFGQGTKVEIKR .
*A* 0.08
